- TARGET OR TEST SYSTEM: Gag-Pol polyprotein (Human immunodeficiency virus type 1 group M subtype B (isolate HXB2))
- PROTOCOL SUMMARY: RNase H inhibition, HIV 1 Gag Pol polyprotein, FRET biochemical assay, screening (AID 372)
- CONDITIONS USED: HIV-1 RT RNase H, FRET RNA/DNA substrate fluorescence; at 10 µM
Among all 100,000 compounds or so, about 770 (0.77%) were called active. Rule as the data show it: active = inhibition above about 50%; inactive = the rest. Many of the other results were omitted from the sample, so actives are more common in it than they were.
Classes to choose from: 1 for active, -1 for inactive

Known results for molecules:
MOLECULE	CATEGORY
O=C(NC(=S)Nc1ccc(Cl)c(-c2nc3cc(Cl)ccc3o2)c1)c1ccc(F)cc1	1
O=C(COc1ccc2ccccc2c1)N/N=C\c1cc(O)c(O)c(Br)c1	1
COc1ccc(Cl)cc1NC(=O)C(=O)NCc1ccncc1	1
COc1ccc(C)cc1NC(=O)C(=O)NCc1ccccc1	1
O=C(COc1ccccc1Br)N/N=C/c1ccccc1	-1

// query I'd appreciate the recorded outcome for "CCOC(=O)c1sc(NC(=O)Cn2nc([N+](=O)[O-])c([N+](=O)[O-])c2C)c(C(=O)OCC)c1C" from this test.
// result -1

// query I'd appreciate the recorded outcome for "Cc1oc2ccc(OCc3ccc([N+](=O)[O-])cc3)cc2c1C(=O)OC(C)C" from this test.
// result -1

// query I'd appreciate the recorded outcome for "CCN1C(=O)/C(=C2\SC(=O)N(Cc3ccccc3)C2=O)c2ccccc21" from this test.
// result 1

====

# inhibition per record follows
- TARGET OR TEST SYSTEM: Gag-Pol polyprotein (Human immunodeficiency virus type 1 group M subtype B (isolate HXB2)) (UniProt P04585)
- PROTOCOL SUMMARY: RNase H inhibition, HIV 1 Gag Pol polyprotein, FRET biochemical assay, screening (AID 372)
- CONDITIONS USED: HIV-1 RT RNase H, FRET RNA/DNA substrate fluorescence; at 10 µM; active compounds read high
Hit rate of the full screen: of about 100,000 compounds, about 770 (0.77%) were called active. The list comes from a sample in which actives are over-represented; it also holds close analogues and randomly drawn compounds.
Please respond with the number in % and leave the unit unwritten.

Use these answered entries as a reference point.
COMPOUND	ASSAY READOUT	READOUT VALUE
CC(=O)NCCc1c(C)n(Cc2ccccc2)c2ccccc12	inhibition	2
Cc1cc(-c2ccc(C)o2)c(C#N)c(SCC(=O)c2ccccc2)n1	inhibition	1
COc1ccc(C(=O)NNC(N)=S)cc1	inhibition	0
COc1ccccc1N1CCN(/N=C/C=C\c2ccco2)CC1	inhibition	8
O=C1NC(=O)N(Cc2ccco2)C(=O)/C1=C\c1ccc(-c2ccc(Cl)c([N+](=O)[O-])c2)o1	inhibition	35
O=C1NC(=O)N(Cc2ccco2)C(=O)/C1=C\c1ccc(-c2ccc(Cl)c(Cl)c2)o1	inhibition	41

// query Input "COc1ccccc1/C=C1/C(=O)N(c2ccc(Cl)c(Cl)c2)N=C1C" , output reported inhibition.
// result 3

// query Input "Cc1nc(SCC(=O)c2ccc(O)c(O)c2)c(C#N)c(CC(C)C)c1C(N)=O" , output reported inhibition.
// result 51

====

- TARGET OR TEST SYSTEM: Gag-Pol polyprotein (Human immunodeficiency virus type 1 group M subtype B (isolate HXB2))
- PROTOCOL SUMMARY: RNase H inhibition, HIV 1 Gag Pol polyprotein, FRET biochemical assay, screening (AID 372)
- CONDITIONS USED: HIV-1 RT RNase H, FRET RNA/DNA substrate fluorescence; at 10 µM
The campaign covered roughly 100,000 compounds. About 770 (0.77%) were called active. Cut-off read from the data, not from the text of the source: active = inhibition above about 50%; inactive = the rest. This excerpt belongs to a sample that is enriched for actives.
Classes to choose from: yes = active, no = inactive

Known results for compounds:
O=S(=O)(NC1CCCCCCC1)c1ccc(F)cc1 no
O=C1C(=Cc2ccc(Oc3ccc(C(F)(F)F)cc3[N+](=O)[O-])c(Cl)c2)C(=O)c2ccccc21 no
O=C(CSc1nc2ccccc2s1)NNC(=S)Nc1ccc(Cl)cc1 yes

// query I'd appreciate the recorded outcome for "COc1ccc(OCC(=O)N=Nc2c(O)n(C)c3c(C)cccc23)c(Br)c1" from this test.
// result no

// query I'd appreciate the recorded outcome for "COc1ccc(NC(=O)n2nc(C(F)(F)F)nc2N)cc1" from this test.
// result no

// query I'd appreciate the recorded outcome for "O=C(CSc1nc2ccccc2s1)NC1CCCCC1" from this test.
// result no
